Reported half-life values follow for various molecules
- METHOD_SUMMARY: Pharmacokinetics of FTD and TPI in plasma of solid cancer patients given FTD/TPI combination drug, by renal function cohort
- Assay type: in vivo, human
- ASSAY_CONDITIONS: human, plasma, po, 35 mg/m2, Day 1; Cohort 2: moderate renal impairment (CLcr 30 to 59 mL/min); 35 mg/m^2 per once as FTD, oral, twice a day; plasma; mean
ENDPOINT: half-life (h)

{"SMILES_CODE": "O=c1[nH]c(=O)n([C@H]2C[C@H](O)[C@@H](CO)O2)cc1C(F)(F)F", "MEASURED_RESULT": 1.9}
{"SMILES_CODE": "Cl.N=C1CCCN1Cc1[nH]c(=O)[nH]c(=O)c1Cl", "MEASURED_RESULT": 2.42}

// provenance: patent US10960004B2
